These measurements were taken from PubChem BioAssay (NCI).

# System: RPMI-8226 leukemia
# procedure details: NCI-60 one-dose screen, 48 h (100 = growth as untreated, 0 = no growth, -100 = all killed)
# condition: 10 µM unless noted
This is part of a sample that, as a whole, favours compounds with a hit. Of some 83,000 tested, about 20% had one in any assay.
Binary classification by growth, with 20% as an inclusive lower bound for yes; all other cases are no.

- smiles repr: "COc1cccc([C@H]2c3[nH]c4ccccc4c3C[C@H]3C(=O)N(CCCCCCC(=O)NO)CC(=O)N23)c1"
  category: "no"
- smiles repr: "CCOC(=O)C1=NN(c2ccccc2)C(=O)/C1=C\\N1C(=O)CC(=O)NC1=S"
  category: "yes"
- smiles repr: "C#Cc1cccc(Nc2ncnc3ccc(-c4cnc(N)nc4)cc23)c1"
  category: "yes"
- smiles repr: "COc1cc(-c2nc(SCC(C)C)nc(Nc3cccc4ccccc34)c2C#N)cc(OC)c1OC"
  category: "yes"
- smiles repr: "COc1cc(CNS(=O)(=O)c2ccc(C)cc2)ccc1OCc1cn(-c2ccc(F)cc2)nn1"
  category: "yes"
